biological target: Biotin QP004.3 (biotin-PDL1-FC) (human) (UniProt Q9NZQ7); assay: binding ELISA, antibody coated, biotin-PDL1-FC titrated
Sequence (Q9NZQ7 19-238 limits assumed): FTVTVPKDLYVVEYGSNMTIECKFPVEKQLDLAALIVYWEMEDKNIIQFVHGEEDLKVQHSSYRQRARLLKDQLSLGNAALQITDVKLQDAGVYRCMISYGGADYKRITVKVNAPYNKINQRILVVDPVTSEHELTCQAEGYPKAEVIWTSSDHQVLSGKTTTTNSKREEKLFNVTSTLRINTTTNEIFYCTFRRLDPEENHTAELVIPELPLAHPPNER
binders and their reported ELISA reading at 0.0021 µg/ml biotin-PDL1-FC
QUANTITY_NAME: ELISA reading at 0.0021 µg/ml biotin-PDL1-FC

>  <BINDER>
QP324 (Fc fusion, not shown: a dimerising Fc or GST) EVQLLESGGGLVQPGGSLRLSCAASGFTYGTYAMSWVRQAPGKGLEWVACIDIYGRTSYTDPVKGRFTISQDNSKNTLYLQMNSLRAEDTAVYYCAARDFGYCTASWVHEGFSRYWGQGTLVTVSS

>  <ASSAY_VALUE>
0.141

$$$$
>  <BINDER>
QP325 (Fc fusion, not shown: a dimerising Fc or GST) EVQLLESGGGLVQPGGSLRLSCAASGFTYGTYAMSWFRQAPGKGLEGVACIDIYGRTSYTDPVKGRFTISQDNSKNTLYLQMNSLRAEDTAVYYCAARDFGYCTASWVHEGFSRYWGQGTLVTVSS

>  <ASSAY_VALUE>
0.598

$$$$
>  <BINDER>
QP320 (Fc fusion, not shown: a dimerising Fc or GST) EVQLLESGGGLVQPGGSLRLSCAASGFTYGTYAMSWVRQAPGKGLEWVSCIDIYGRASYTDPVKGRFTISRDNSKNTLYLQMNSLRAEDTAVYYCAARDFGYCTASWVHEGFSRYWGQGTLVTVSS

>  <ASSAY_VALUE>
0.114

$$$$
>  <BINDER>
QP1166 (Fc fusion, not shown: a dimerising Fc or GST) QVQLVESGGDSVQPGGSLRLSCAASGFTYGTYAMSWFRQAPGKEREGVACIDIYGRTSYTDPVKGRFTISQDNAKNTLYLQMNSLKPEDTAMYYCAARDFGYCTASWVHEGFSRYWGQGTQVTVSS

>  <ASSAY_VALUE>
0.56

$$$$
